Compiled notes: published IC50 values involving UniProt:Q9Y5Y4.

Record excerpt, results attached:
molecule | value_observed
CCOc1ccc(CC(=O)O)cc1-c1ccc(F)c2c1CN(C(=O)OCc1ccnn1C)CC2 | 8.8 nM
CCN(Cc1ccc(C)cc1-c1cc(CC(=O)O)ccc1OC)C(=O)OCc1ccc(Cl)cc1 | < 300 nM

Q. // query IC50 value for entry O=C(O)Cn1cc(CCNS(=O)(=O)c2ccc(F)cc2)c2cc(F)ccc21
A. 15 nM

Q. // query IC50 value for entry CCN(c1ccc2c(c1)c1c(n2CC(=O)O)CCCCC1)S(=O)(=O)c1ccc(F)cc1
A. 7.5 nM

Q. // query IC50 value for entry COc1ccc(CC(=O)O)cc1Oc1ccc(Br)cc1CN1C(=O)O[C@H]2Cc3ccccc3[C@H]21
A. < 300 nM

Q. // query IC50 value for entry CCOc1ccc(CC(=O)O)cc1-c1ccc(F)c2c1CN(C(=O)CC(C)(C)c1ccccc1)CC2
A. 11.7 nM

Q. // query IC50 value for entry CCOc1ccc(CC(=O)O)cc1-c1ccc(F)c2c1CN(C(=O)CC(C)c1cccc(C)n1)CC2 (racemic)
A. 1.8 nM

Q. // query IC50 value for entry CCC(=O)N(Cc1cccc(-c2cccnc2)c1)c1cc(F)cc(-c2nnn[nH]2)c1
A. 34 nM

###

Compiled notes: published pIC50 values involving hCRTH2 receptor (Homo sapiens (Human), UniProt Q9Y5Y4).
pIC50: −log10 of the molar value.
Recorded pIC50 determines the group label, using c1: < 7; c2: ≥ 7 and < 8; c3: ≥ 8

Field: example entries. Status: answers known.
compound | target_desc | class_label
CCC(=O)N(Cc1nonc1C)c1cccc(-c2nnn[nH]2)c1 | hCRTH2 receptor (Homo sapiens (Human), UniProt Q9Y5Y4) | c1
CCOc1ccc(CC(=O)O)cc1-c1ccc(F)c2c1CN(C(=O)CCc1cccc(F)c1)CC2 | hCRTH2 receptor (Homo sapiens (Human), UniProt Q9Y5Y4) | c3
Cc1c(C(C)(C)CNS(=O)(=O)c2ccc(F)cc2)c2ccccc2n1CC(=O)O | hCRTH2 receptor (Homo sapiens (Human), UniProt Q9Y5Y4) | c2
CCC(=O)N(Cc1cccc(-c2ccccc2)c1)c1cccc(-c2nnn[nH]2)c1 | hCRTH2 receptor (Homo sapiens (Human), UniProt Q9Y5Y4) | c1
O=C(O)COc1ccc(Cl)cc1C1c2scnc2CCN1C(=O)OCc1ccc(Cl)cc1 (racemic) | hCRTH2 receptor (Homo sapiens (Human), UniProt Q9Y5Y4) | c3
CCOc1cc(CC(=O)O)ccc1-c1ccc(F)c2c1CN(C(=O)OCc1ccnn1C)CC2 | hCRTH2 receptor (Homo sapiens (Human), UniProt Q9Y5Y4) | c3
COc1ccc(CC(=O)O)cc1-c1ccc(F)c2c1CN(C(=O)COc1cccnc1)CC2 | hCRTH2 receptor (Homo sapiens (Human), UniProt Q9Y5Y4) | c1
COc1ccc(CC(=O)O)cc1-c1ccc(F)c2c1CCN(C(=O)CCc1cn(C)c3ccccc13)C2 | hCRTH2 receptor (Homo sapiens (Human), UniProt Q9Y5Y4) | c2
COc1cc(CC(=O)O)ccc1-c1ccc(F)c2c1CN(C(=O)COCc1ccccc1Cl)CC2 | hCRTH2 receptor (Homo sapiens (Human), UniProt Q9Y5Y4) | c3

# input for lookup
Q. Hello team, could you let me know which band the following compound falls into: COc1ccc(CC(=O)O)cc1-c1ccc(F)c2c1CCN(C(=O)OCc1ccccc1)C2
A. c1

###

pIC50: −log10 of the molar value.
Compiled notes: published pIC50 values involving hCRTH2 receptor (Homo sapiens (Human)).
Recorded pIC50 determines the group label, using bin 0: < 7; bin 1: ≥ 7 and < 8; bin 2: ≥ 8

Field: example entries. Status: answers known.
compound | class_label
COc1ccc(CC(=O)O)cc1-c1ccc(F)c2c1CN(C(=O)OCc1cnc(C)s1)CC2 | bin 2
CCC(=O)N(Cc1ccncc1)c1cccc(-c2nnn[nH]2)c1 | bin 0
O=C(O)COc1ccc(Cl)cc1C1c2sc(NS(=O)(=O)C3CC3)nc2CCN1C(=O)OCc1ccccc1 (racemic) | bin 0
O=C(O)Cc1ccc(-c2ccc(F)c3c2CN(C(=O)OCc2ccccc2)CC3)c(F)c1 | bin 1
CCc1c(C)n(CC(=O)O)c2ccc(NS(=O)(=O)c3ccc(F)cc3)cc12 | bin 1

Q. Hello team, could you let me know which band the following compound falls into: Cc1[nH]c2ccccc2c1CCC(=O)N1CCc2ncsc2C1c1cc(Cl)ccc1OCC(=O)O (racemic)
A. bin 0

Q. Hello team, could you let me know which band the following compound falls into: CC(C)CC(=O)N(Cc1ccc(S(C)(=O)=O)cc1)c1cc(F)cc(-c2nnn[nH]2)c1
A. bin 2

Q. Hello team, could you let me know which band the following compound falls into: Cc1ccc(-c2cc(OCC(=O)O)ccc2Cl)c2c1CCN(C(=O)OCc1ccccc1)C2
A. bin 0

Q. Hello team, could you let me know which band the following compound falls into: CCC(=O)N(Cc1ccsc1)c1cccc(-c2nnn[nH]2)c1
A. bin 0

Q. Hello team, could you let me know which band the following compound falls into: CC(C)Oc1cc(CC(=O)O)ccc1-c1ccc(F)c2c1CN(C(=O)CC(C)c1ccccn1)CC2 (racemic)
A. bin 2

Q. Hello team, could you let me know which band the following compound falls into: CCOc1ccc(CC(=O)O)cc1-c1ccc(F)c2c1CN(C(=O)CC1(c3ccccc3F)CC1)CC2
A. bin 1

Q. Hello team, could you let me know which band the following compound falls into: Cc1cccc(C(C)CC(=O)N2CCc3c(F)ccc(-c4cc(CC(=O)O)ccc4OC(C)C)c3C2)n1 (racemic)
A. bin 2

###

Compiled notes: published IC50 values involving hCRTH2 receptor (Homo sapiens (Human), UniProt Q9Y5Y4).
Write the value in nM as a bare number.

Record excerpt, results attached:
compound | IC50 / nM
CC1(C)CC1C(=O)N1CCc2ncsc2C1c1cc(Cl)ccc1OCC(=O)O (racemic) | 37.1
CC(C)Oc1cc(CC(=O)O)ccc1-c1ccc(F)c2c1CN(C(=O)[C@@H]1C[C@H]1c1ccccc1)CC2 | 1.6
COc1ccc(CC(=O)O)cc1-c1ccc(F)c2c1CN(C(=O)[C@@H]1C[C@H]1c1ccccc1F)CC2 | 1.77

Q. // query IC50 value for entry CCc1nc2c(F)ccc(OCC(=O)O)c2c(OC(F)F)c1Cc1ccc(-n2cccn2)cc1
A. 5.4

Q. // query IC50 value for entry COc1ccc(CC(=O)O)cc1-c1ccc(F)c2c1CN(C(=O)[C@@H]1C[C@H]1c1ccccc1Cl)CC2 (racemic)
A. 2.11

Q. // query IC50 value for entry COc1ccc(CC(=O)O)cc1-c1ccc(F)c2c1CN(C(=O)CCc1ccccc1C)CC2
A. 42.1

###

Compiled notes: published IC50 values involving hCRTH2 receptor (Homo sapiens (Human)).

Record excerpt, results attached:
compound | readout_name | value_observed
O=C(O)Cc1ccc(-c2ccc(F)c3c2CN(C(=O)OCc2ccccc2)CC3)c(OCC(F)(F)F)c1 | IC50 | 1 nM
CCOc1cc(CC(=O)O)ccc1-c1ccc(F)c2c1CN(C(=O)OCC1CCCC1)CC2 | IC50 | 5.9 nM
O=C(O)Cc1cccc(Oc2ccc(Br)cc2CN2C(=O)OC[C@@H]2Cc2ccccc2)c1 | IC50 | < 300 nM

Q. // query IC50 value for entry COc1cccc(-c2ccc(Oc3cc(CC(=O)O)ccc3OC)c(CN3C(=O)O[C@H](c4ccccc4)[C@@H]3C)c2)c1
A. < 300 nM

Q. // query IC50 value for entry CCc1c(C)n(CC(=O)O)c2ccc(N(C)S(=O)(=O)c3ccc(F)cc3)cc12
A. 19 nM

Q. // query IC50 value for entry CCN(Cc1ccc(C)cc1-c1cc(CC(=O)O)ccc1OC)C(=O)NCc1ccccc1
A. < 300 nM

Q. // query IC50 value for entry COc1ccc(CC(=O)O)cc1Oc1ccc(NC(=O)COc2ccccc2)cc1CN1CCOC1=O
A. < 300 nM

###

Compiled notes: published IC50 values involving hCRTH2 receptor (Homo sapiens (Human)).

molecule | IC50
CCCCC(=O)N(Cc1cccs1)c1cccc(-c2nnn[nH]2)c1 | 0.588 µM
COc1ccc(CC(=O)O)cc1-c1ccc(F)c2c1CN(C(=O)CC1(c3ccccc3)CC1)CC2 | 0.0028 µM
CCOc1cc(CC(=O)O)ccc1-c1ccc(F)c2c1CN(C(=O)OCc1ccccc1)CC2 | 0.026 µM
CCC(=O)N(Cc1cccs1)c1cccc(-c2nnn[nH]2)c1 | 1.59 µM
CCCCC(=O)N(Cc1ccc(OC)cc1)c1cc(Cl)cc(-c2nnn[nH]2)c1 | 0.0042 µM

Q. Form field: IC50 recorded for CCN(Cc1cc(C(F)(F)F)ccc1-c1cc(Cl)cc(CC(=O)O)c1)C(=O)NC with hCRTH2 receptor (Homo sapiens (Human)) (enter value)
A. < 0.3 µM

Q. Form field: IC50 recorded for COc1ccc(CC(=O)O)cc1-c1ccc(C(F)(F)F)cc1CN(Cc1ccccc1)C(C)=O with hCRTH2 receptor (Homo sapiens (Human)) (enter value)
A. < 0.3 µM

Q. Form field: IC50 recorded for COc1ccc(CC(=O)O)cc1-c1ccc(Cl)c2c1CN(C(=O)CCN1CCc3ccccc31)CC2 with hCRTH2 receptor (Homo sapiens (Human)) (enter value)
A. 0.0615 µM
